Catalogue of compounds with associated GI50
# Tested on: OVCAR-8 ovarian
# assay_method_text: NCI tumour cell line growth inhibition, 48 h

Below: 3 compounds and their reported GI50.
| compound | GI50 |
| --- | --- |
| O=c1c2cc(Cl)ccc2oc2ccc(OCCCCCN3CCCCC3)cc12 | 6.09 µM |
| COc1cc(/C=C/C(=O)CC(=O)/C=C/c2cc(OC)c(OC)c(OC)c2)cc(OC)c1OC | 3.04 µM |
| Nc1c(C(=O)c2ccc(Cl)cc2)sc(Nc2ccccc2)c1-c1nc2ccccc2s1 | 2.68 µM |

Endpoint output: GI50 of "CC[C@H](NC(=O)[C@H](C)NC)C(=O)N1C[C@@H](O)C[C@H]1Cc1c(-c2[nH]c3cc(F)ccc3c2C[C@@H]2C[C@H](O)CN2C(=O)[C@H](CC)NC(=O)[C@H](C)NC)[nH]c2cc(F)ccc12" . Value?
31.2 µM

Endpoint output: GI50 of COc1cc(OC)cc(C2CC(=O)Nc3c2c(C)nn3-c2nc3ccccc3[nH]2)c1 (stereo not drawn) . Value?
3.97 µM

Endpoint output: GI50 of "COc1ccc(CN(C)c2ccc(CO)c(Cl)c2)cc1" . Value?
19.6 µM

Endpoint output: GI50 of "O=C1c2ccccc2-c2c1c1ccccc1c(=O)n2CCCNCCCn1ccnc1" . Value?
2.44 µM

Endpoint output: GI50 of "CCN1CCN(C(=O)[C@]23CC[C@@H](C)[C@H](C)[C@@H]2C2=CC[C@@H]4[C@@]5(C)C/C(=C/c6ccncc6)C(=O)C(C)(C)[C@@H]5CC[C@@]4(C)[C@]2(C)CC3)CC1" . Value?
2.26 µM
